Reference source for all entries: PubChem BioAssay (NCI)

- Test system: OVCAR-3 ovarian
- test method notes: NCI tumour cell line growth inhibition, 48 h; in the data active = GI50 below about 0.43 µM; inactive = the rest
Labels: active, inactive

>  <compound>
CC1SC(c2ccccc2)N(CCc2cccs2)C1=O (stereo not given)

>  <class>
inactive

$$$$
>  <compound>
CCCC(C)c1cc(Cc2cc(Cl)cc(Cl)c2O)c(O)c(Cc2cc(Cl)cc(Cl)c2O)c1 (stereo not given)

>  <class>
inactive

$$$$
>  <compound>
OC(c1cc(-c2ccccc2)nc2ccc(Cl)cc12)C1CCCCN1 (stereo not given)

>  <class>
inactive

$$$$
>  <compound>
Cc1ccccc1[P+](Cc1ccccc1)(c1ccccc1)c1ccccc1

>  <class>
inactive

$$$$
>  <compound>
COc1ccc(/C(=C2/O[C@@H]([C@H]3COC(C)(C)O3)[C@H]3OC(C)(C)O[C@@H]23)c2cc(OC)c(OC)c(OC)c2)cc1O

>  <class>
inactive

$$$$
>  <compound>
O=C1/C(=C\c2c[nH]c3ccccc23)c2ccccc2N1c1c(Cl)cccc1Cl

>  <class>
inactive

$$$$
>  <compound>
COc1ccc2nc(-c3ccc(-c4noc(-c5cc(OC)c(OC)c(OC)c5)n4)cc3)[nH]c2c1

>  <class>
inactive

$$$$
>  <compound>
Oc1cccc2ccc(N/N=C/c3cc(CN4CCCCC4)c(O)c4ncccc34)nc12

>  <class>
active

$$$$
>  <compound>
Cn1cc(-c2ccc3occ(-c4cccc(-c5ccncc5)c4)c3n2)cn1

>  <class>
inactive

$$$$
>  <compound>
CCN(CC)CC(C)Nc1ccc([N+](=O)[O-])c2sc3ccccc3c(=O)c12 (stereo not given)

>  <class>
inactive

$$$$
>  <compound>
COc1ccc(/C(C#N)=C/c2ccccc2OC)cc1

>  <class>
inactive

$$$$
>  <compound>
COc1cccc2c1c(C(=O)C(=O)Nc1cc(C)no1)cn2Cc1ccc(F)cc1

>  <class>
inactive

$$$$
>  <compound>
COc1cccc(-n2ncc3c(N/N=C/c4ccc(C(=O)NCCN(C)C)cc4)ncnc32)c1

>  <class>
inactive

$$$$
>  <compound>
C1C[OH+]CC[OH+]CCNCC[OH+]CC[OH+]CCN1.N.[Cl-].[Pt+4]

>  <class>
inactive

$$$$
>  <compound>
COc1ccc(-c2nc3sc4c(c3c(=O)[nH]2)CCCCCC4)cc1

>  <class>
inactive

$$$$
